- subject.of.test: T1, human TREM2 Fc fusion (entire TREM2 ECD; only one Fc arm fused to TREM2) (human, UniProt Q9NZC2 19-174)
- T1 construct: also called huTREM2-Fc; recombinant hTREM2
- T1 sequence: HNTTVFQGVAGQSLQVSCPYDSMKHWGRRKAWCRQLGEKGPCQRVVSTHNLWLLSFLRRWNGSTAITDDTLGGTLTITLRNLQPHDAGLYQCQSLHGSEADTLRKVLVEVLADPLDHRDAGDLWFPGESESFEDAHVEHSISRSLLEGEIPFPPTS
- experiment.summary: BLI, IgG, avid
- Experimental: Briefly, IgGs were loaded on-line onto AHQ sensors, Sensors were equilibrated off-line in assay buffer for 30 minutes and then monitored on-line for 60 seconds for baseline establishment. For avid binding measurement, sensors with loaded IgGs were exposed to 100 nM antigen (human or cynomolgus monkey TREM2 Fe fusion using the entire TREM2 ECD; only one Fc arm was fused to TREM2) for 3 minutes, afterwards they were transferred to assay buffer for 3 minutes for off-rate measurement. […]
Exercise: state measured pKd for each of the binders provided.
Please express pKd as -log10 of the molar concentration.

Input: Can you look up the measured pKd of AL2p-27 (antibody, V domains shown, Fab and IgG formats under one id) VH: QVQLVQSGAEVKKPGSSVKVSCKASGYAFSSHWMNWVRQAPGQGLEWMGRIYPGQGDTNYAQKFQGRVTITADESTSTAYMELSSLRSEDTAVYYCARLLRNQPGESYAMDYWGQGTLVTVSS VL: GVVMTQTPLSLSVTPGQPASISCRSSRSLVHSNGYTYLHWYLQKPGQSPQLLIYKVSNRVSGVPDRFSGSGSGTDFTLKISRVEAEDVGVYYCSQSTRVPYTFGQGTKLEIK for me?
Output: 9.56

Input: Can you look up the measured pKd of AL2p-23 (antibody, V domains shown, Fab and IgG formats under one id) VH: QVQLVQSGAEVKKPGSSVKVSCKASGYAFSSHWMNWVRQAPGQGLEWMGRIYPGDGQTNYAQKRQGRVTITADESTSTAYMELSSLRSEDTAVYYCARLLRNQPGESYAMDYWGQGTLVTVSS VL: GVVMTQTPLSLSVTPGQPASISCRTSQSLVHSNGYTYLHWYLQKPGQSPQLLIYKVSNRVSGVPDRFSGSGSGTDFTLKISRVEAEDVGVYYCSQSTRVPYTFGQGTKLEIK for me?
Output: 9.48

Input: Can you look up the measured pKd of AL2p-30 (antibody, V domains shown, Fab and IgG formats under one id) VH: QVQLVQSGAEVKKPGSSVKVSCKASGYAFSSQWMNWVRQAPGQGLEWMGRIYPGDGDTNYAWKFQGRVTITADESTSTAYMELSSLRSEDTAVYYCARLLRNQPGESYAMDYWGQGTLVTVSS VL: GVVMTQTPLSLSVTPGQPASISCRSSSSLVHSNGYTYLHWYLQKPGQSPQLLIYKVSNRKSGVPDRFSGSGSGTDFTLKISRVEAEDVGVYYCSQSTRVPYTFGQGTKLEIK for me?
Output: 9.42

Input: Can you look up the measured pKd of AL2p-29 (antibody, V domains shown, Fab and IgG formats under one id) VH: QVQLVQSGAEVKKPGSSVKVSCKASGYAFSSQWMNWVRQAPGQGLEWMGRIYPGDGDTNYAQKFQGRVTITADESTSTAYMELSSLRSEDTAVYYCARLLRNQPGESYAMDYWGQGTLVTVSS VL: GVVMTQTPLSLSVTPGQPASISCRSSRSLVHSNGYTYLHWYLQKPGQSPQLLIYKVSNRFSGVPDRFSGSGSGTDFTLKISRVEAEDVGVYYCSQSTRVPYTFGQGTKLEIK for me?
Output: 9.39

Input: Can you look up the measured pKd of AL2p-19 (antibody, V domains shown, Fab and IgG formats under one id) VH: QVQLVQSGAEVKKPGSSVKVSCKASGYAFSSHWMNWVRQAPGQGLEWMGRIYPGDGDTNYARKFQGRVTITADESTSTAYMELSSLRSEDTAVYYCARLLRNQPGESYAMDYWGQGTLVTVSS VL: DVVMTQTPLSLSVTPGQPASISCRSSRSLVHSNGYTYLHWYLQKPGQSPQLLIYKVSNRVSGVPDRFSGSGSGTDFTLKISRVEAEDVGVYYCSQSTRVPYTFGQGTKLEIK for me?
Output: 9.52

Input: Can you look up the measured pKd of AL2p-18 (antibody, V domains shown, Fab and IgG formats under one id) VH: QVQLVQSGAEVKKPGSSVKVSCKASGYAFSSHWMNWVRQAPGQGLEWMGRIYPGDGDTNYAQKWQGRVTITADESTSTAYMELSSLRSEDTAVYYCARLLRNQPGSSYAMDYWGQGTLVTVSS VL: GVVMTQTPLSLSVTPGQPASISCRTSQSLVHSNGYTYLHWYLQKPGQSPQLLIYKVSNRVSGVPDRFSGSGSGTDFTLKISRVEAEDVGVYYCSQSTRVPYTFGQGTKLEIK for me?
Output: 9.64

Input: Can you look up the measured pKd of AL2p-31 (antibody, V domains shown, Fab and IgG formats under one id) VH: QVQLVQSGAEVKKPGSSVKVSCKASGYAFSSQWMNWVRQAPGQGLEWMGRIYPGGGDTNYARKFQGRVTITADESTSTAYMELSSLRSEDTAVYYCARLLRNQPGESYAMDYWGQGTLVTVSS VL: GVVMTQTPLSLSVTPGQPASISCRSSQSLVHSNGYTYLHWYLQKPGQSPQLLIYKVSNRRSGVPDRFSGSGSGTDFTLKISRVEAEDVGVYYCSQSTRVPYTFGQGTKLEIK for me?
Output: 9.50

Input: Can you look up the measured pKd of AL2p-10 (antibody, V domains shown, Fab and IgG formats under one id) VH: QVQLVQSGAEVKKPGSSVKVSCKASGYAFSSDWMNWVRQAPGQGLEWMGRIYPGDGDTNYAQKFQGRVTITADESTSTAYMELSSLRSEDTAVYYCARLLRNQPGESYAMDYWGQGTLVTVSS VL: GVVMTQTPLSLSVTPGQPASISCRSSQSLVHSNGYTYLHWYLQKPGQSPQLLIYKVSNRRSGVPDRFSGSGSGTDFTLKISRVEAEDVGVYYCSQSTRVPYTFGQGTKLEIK for me?
Output: 9.08

Input: Can you look up the measured pKd of AL2p-25 (antibody, V domains shown, Fab and IgG formats under one id) VH: QVQLVQSGAEVKKPGSSVKVSCKASGYAFSSHWMNWVRQAPGQGLEWMGRIYPGGGDTNYAQKFRGRVTITADESTSTAYMELSSLRSEDTAVYYCARLLRNQPGESYAMDYWGQGTLVTVSS VL: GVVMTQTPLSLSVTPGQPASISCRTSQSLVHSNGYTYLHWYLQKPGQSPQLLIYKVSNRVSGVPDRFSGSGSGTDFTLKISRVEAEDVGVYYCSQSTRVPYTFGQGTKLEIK for me?
Output: 9.66

Input: Can you look up the measured pKd of AL2p-12 (antibody, V domains shown, Fab and IgG formats under one id) VH: QVQLVQSGAEVKKPGSSVKVSCKASGYAFSSHWMNWVRQAPGQGLEWMGRIYPGDGDTNYAHKFQGRVTITADESTSTAYMELSSLRSEDTAVYYCARLLRNQPGESYAMDYWGQGTLVTVSS VL: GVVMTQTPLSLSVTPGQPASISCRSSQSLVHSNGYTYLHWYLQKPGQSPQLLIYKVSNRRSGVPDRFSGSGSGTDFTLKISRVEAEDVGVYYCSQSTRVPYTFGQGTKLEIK for me?
Output: 9.29
